- test name: activity coefficient (dimensionless); of the first substance listed, at infinite dilution; xn = mol fraction of the nth substance listed
- experimental setup: 368.15 K; 101.33 kPa; Liquid; Chromatography; x1 = 0
endpoint label: activity coefficient

>  <compound>
CC#N [acetonitrile] + CC[N+]1(C)CCOCC1.N#CN=C=[N-]

>  <numeric readout>
1.21

$$$$
>  <compound>
C=C(C)c1ccccc1 [(1-methylethenyl)benzene] + CC[N+]1(C)CCOCC1.N#CN=C=[N-]

>  <numeric readout>
13.1

$$$$
>  <compound>
CCOC(C)(C)C [2-ethoxy-2-methylpropane] + CC[N+]1(C)CCOCC1.N#CN=C=[N-]

>  <numeric readout>
116

$$$$
>  <compound>
COC(C)(C)C [2-methoxy-2-methylpropane] + CC[N+]1(C)CCOCC1.N#CN=C=[N-]

>  <numeric readout>
38

$$$$
>  <compound>
CCC(=O)CC [pentan-3-one] + CC[N+]1(C)CCOCC1.N#CN=C=[N-]

>  <numeric readout>
6.23

$$$$
>  <compound>
C=CCCCCC [1-heptene] + CC[N+]1(C)CCOCC1.N#CN=C=[N-]

>  <numeric readout>
210

$$$$
>  <compound>
CC(C)O [propan-2-ol] + CC[N+]1(C)CCOCC1.N#CN=C=[N-]

>  <numeric readout>
1.95

$$$$
>  <compound>
CCCOCCC [dipropyl ether] + CC[N+]1(C)CCOCC1.N#CN=C=[N-]

>  <numeric readout>
119

$$$$
>  <compound>
CCC[N+](=O)[O-] [1-nitropropane] + CC[N+]1(C)CCOCC1.N#CN=C=[N-]

>  <numeric readout>
2.78

$$$$

###

activity coefficient values, listed per item
- test name: activity coefficient (dimensionless); of the first substance listed, at infinite dilution; xn = mol fraction of the nth substance listed
- experimental setup: 338.15 K; 101.33 kPa; Liquid; Chromatography; x1 = 0

>  <compound>
Cc1cccc(C)c1 [1,3-dimethylbenzene] + CC[N+]1(C)CCOCC1.N#CN=C=[N-]

>  <activity coefficient>
14.4

$$$$
>  <compound>
CCCCCCCCCC [decane] + CC[N+]1(C)CCOCC1.N#CN=C=[N-]

>  <activity coefficient>
1880

$$$$
>  <compound>
C#CCCCC [1-hexyne] + CC[N+]1(C)CCOCC1.N#CN=C=[N-]

>  <activity coefficient>
26.4

$$$$
>  <compound>
CC(C)=O [acetone] + CC[N+]1(C)CCOCC1.N#CN=C=[N-]

>  <activity coefficient>
1.8

$$$$
>  <compound>
CCC[N+](=O)[O-] [1-nitropropane] + CC[N+]1(C)CCOCC1.N#CN=C=[N-]

>  <activity coefficient>
2.49

$$$$
>  <compound>
Cc1ccccc1 [toluene] + CC[N+]1(C)CCOCC1.N#CN=C=[N-]

>  <activity coefficient>
8.33

$$$$
>  <compound>
C1COCCO1 [1,4-dioxane] + CC[N+]1(C)CCOCC1.N#CN=C=[N-]

>  <activity coefficient>
1.82

$$$$
>  <compound>
C1CCCCCCC1 [cyclooctane] + CC[N+]1(C)CCOCC1.N#CN=C=[N-]

>  <activity coefficient>
273

$$$$
>  <compound>
CCO [ethanol] + CC[N+]1(C)CCOCC1.N#CN=C=[N-]

>  <activity coefficient>
1.21

$$$$
>  <compound>
CC(C)CO [2-methyl-1-propanol] + CC[N+]1(C)CCOCC1.N#CN=C=[N-]

>  <activity coefficient>
2.86

$$$$
>  <compound>
C=CCCCCCC [oct-1-ene] + CC[N+]1(C)CCOCC1.N#CN=C=[N-]

>  <activity coefficient>
402

$$$$
>  <compound>
C1CCOC1 [tetrahydrofuran] + CC[N+]1(C)CCOCC1.N#CN=C=[N-]

>  <activity coefficient>
3.57

$$$$
>  <compound>
CO [methanol] + CC[N+]1(C)CCOCC1.N#CN=C=[N-]

>  <activity coefficient>
0.645

$$$$
>  <compound>
C#CCCCCC [1-heptyne] + CC[N+]1(C)CCOCC1.N#CN=C=[N-]

>  <activity coefficient>
47.6

$$$$
>  <compound>
COC(C)=O [methyl ethanoate] + CC[N+]1(C)CCOCC1.N#CN=C=[N-]

>  <activity coefficient>
3.18

$$$$
>  <compound>
CCCCCCCC [octane] + CC[N+]1(C)CCOCC1.N#CN=C=[N-]

>  <activity coefficient>
903

$$$$
>  <compound>
C1=CCCCC1 [cyclohexene] + CC[N+]1(C)CCOCC1.N#CN=C=[N-]

>  <activity coefficient>
49.4

$$$$
>  <compound>
Cc1ccccc1C [1,2-dimethylbenzene] + CC[N+]1(C)CCOCC1.N#CN=C=[N-]

>  <activity coefficient>
11.4

$$$$
>  <compound>
CC(C)(C)O [2-methylpropan-2-ol] + CC[N+]1(C)CCOCC1.N#CN=C=[N-]

>  <activity coefficient>
2.8

$$$$
